Where do these numbers come from? They come from PubChem BioAssay AID1259407.

Test system: CCRIS mutagenicity, Ames/micronucleus/aberration tests
Assay: CCRIS mutagenicity studies
Settings: Test System: AMES SALMONELLA TYPHIMURIUM; Strain/Indicator: TA100; Metabolic Activation: RAT, LIVER, S-9, PCB; Method: STANDARD PLATE
Active and inactive are the calls of the source. The rule behind the calls is not given here.
Write down the outcome that applies. Available outcomes: active, inactive

>>> print(df.to_string())
                  smiles_code  category_label
0  c1cc2ccc3cccc4ccc(c1)c2c34        inactive

INPUT: Could you kindly confirm the outcome this assay logged for Brc1c2ccccc2cc2c1ccc1ccccc12 ?
OUTPUT: active

----------
System: CCRIS mutagenicity, Ames/micronucleus/aberration tests
Test: CCRIS mutagenicity studies
Conditions: Test System: AMES SALMONELLA TYPHIMURIUM; Strain/Indicator: TA1535; Metabolic Activation: RAT, LIVER, S-9, AROCLOR 1254; Method: STANDARD PLATE
Activity calls are given as the source filed them. No rule for the calls is given here.
observation.type: mutagenic call

>>> print(df.to_string())
                      compound  observation_type              result
0         O=C(/C=N/O)Nc1ccccc1    mutagenic call  inactive; negative
1       c1ccc2c(c1)ccc1ccccc12    mutagenic call    active; positive
2         C/C=C\c1ccc(OC)cc1OC    mutagenic call  inactive; negative
3                       BrCCBr    mutagenic call    active; positive
4  C=CC(=O)OCC(C)(C)COC(=O)C=C    mutagenic call  inactive; negative

Give mutagenic call for all compounds that follow.
1. NCC1CCC(C(=O)c2ccc(CCC(=O)O)cc2)CC1 (stereo not given)
2. Nc1ccc(O)c2c1C(=O)c1c(O)ccc(N)c1C2=O
3. CN(C)P(=O)(N(C)C)N(C)C

OUTPUT:
["inactive; negative", "inactive; negative", "inactive; negative"]

Give mutagenic call for all compounds that follow.
1. CCCCC(CC)COC(=O)c1ccc(C(=O)O)cc1 (stereo not given)
2. C=Cc1ccccn1
3. CCC(=O)n1ncc(Cl)c(Cl)c1=O
4. Cc1ccc(C(C)(C)C)c(O)c1C(O)c1ncc([N+](=O)[O-])n1C (stereo not given)
5. CC(S)C(=O)NCC(=O)O (stereo not given)

OUTPUT:
1: inactive; negative; 2: inactive; negative; 3: inactive; negative; 4: inactive; negative; 5: inactive; negative

Give mutagenic call for all compounds that follow.
1. ClC(Br)Br
2. ClCCCCl

OUTPUT:
1. active; positive
2. inactive; negative

----------
System: CCRIS mutagenicity, Ames/micronucleus/aberration tests
Test: CCRIS mutagenicity studies
Details: Test System: AMES SALMONELLA TYPHIMURIUM; Strain/Indicator: TA100; Metabolic Activation: RAT, LIVER, S-9, PCB; Method: PREINCUBATION
Excerpt: The CCRIS database contains chemical records with carcinogenicity, mutagenicity, tumor promotion, and tumor inhibition test results. It was developed by the National Cancer Institute (NCI). Data are derived from studies cited in primary journals, current awareness tools, NCI reports, and other sources. Test results have been reviewed by experts in carcinogenesis and mutagenesis. CCRIS provides historical information from the years 1985 - 2011. It is no longer updated. […]
Activity calls are given as the source filed them. No rule for the calls is given here.
Write down the outcome that applies. Available outcomes: YES (active), NO (inactive)

INPUT: Could you kindly confirm the outcome this assay logged for ClC[C@H]1CO1 ?
OUTPUT: YES

INPUT: Could you kindly confirm the outcome this assay logged for CNc1ccc2nc(C)cnc2c1C ?
OUTPUT: YES

INPUT: Could you kindly confirm the outcome this assay logged for COc1ccc2cc([C@H](C)C(=O)O)ccc2c1 ?
OUTPUT: NO

INPUT: Could you kindly confirm the outcome this assay logged for CCOc1ccc(NC(C)=O)cc1 ?
OUTPUT: NO

INPUT: Could you kindly confirm the outcome this assay logged for Cc1ccc(NO)cc1C ?
OUTPUT: YES

INPUT: Could you kindly confirm the outcome this assay logged for Nc1ccc(Cc2ccc(N)c(C(=O)O)c2)cc1C(=O)O ?
OUTPUT: NO

INPUT: Could you kindly confirm the outcome this assay logged for Cc1cc(=O)n(-c2ccccc2)n1C ?
OUTPUT: NO

INPUT: Could you kindly confirm the outcome this assay logged for OCC1=CCN2CC[C@@H](O)[C@@H]12 ?
OUTPUT: NO

INPUT: Could you kindly confirm the outcome this assay logged for CC(O)CN(CC(C)O)N=O (configuration not stated) ?
OUTPUT: YES

INPUT: Could you kindly confirm the outcome this assay logged for [O-][n+]1cc2ncccc2cn1 ?
OUTPUT: NO

INPUT: Could you kindly confirm the outcome this assay logged for O=CC(=O)c1ccccc1 ?
OUTPUT: NO

INPUT: Could you kindly confirm the outcome this assay logged for OC[C@H](O)CCl ?
OUTPUT: YES

----------
Tested on: CCRIS mutagenicity, Ames/micronucleus/aberration tests
Assay: CCRIS mutagenicity studies
Details: Test System: AMES SALMONELLA TYPHIMURIUM; Strain/Indicator: TA100; Metabolic Activation: RAT LIVER S-9, PCB; Method: PREINCUBATION
Calls of active or inactive are those of the source. No rule for the calls is given here.
Write down the outcome that applies. Available outcomes: Y for active, N for inactive

Example entries and their recorded answers appear below.
>>> print(df.to_string())
                                   molecule  category_label
0                        Cc1ccc(C(=O)Cl)cc1               Y
1  O=C(Cl)C(Cl)c1ccccc1 (stereo unspecified)               Y
2                         O=C(Cl)c1ccccc1Cl               Y
3                         O=Cc1cccc(Cl)c1Cl               N
4                      O=C(O)c1cc(Cl)ccc1Cl               N

INPUT: Could you kindly confirm the outcome this assay logged for O=C(Cl)Cc1ccccc1 ?
OUTPUT: Y

----------
Tested on: CCRIS mutagenicity, Ames/micronucleus/aberration tests
Assay: CCRIS mutagenicity studies
Settings: Test System: AMES SALMONELLA TYPHIMURIUM; Strain/Indicator: TA97; Metabolic Activation: RAT, LIVER, S-9, PHENOBARBITAL AND 5,6-BENZOFLAVONE; Method: PREINCUBATION
Active and inactive are the calls of the source. No rule for the calls is given here.
observation.type: mutagenic call

>>> print(df.to_string())
                     smiles_code                           subject_of_test  observation_type              result
0              O=C(O)/C=C\C(=O)O  CCRIS mutagenicity, Ames/micronucleus/aberration tests    mutagenic call  inactive; negative
1    O=C1C=CC(=O)c2c(O)ccc(O)c21  CCRIS mutagenicity, Ames/micronucleus/aberration tests    mutagenic call    active; positive
2  O=C1C(Cl)=C(Cl)C(=O)c2ccccc21  CCRIS mutagenicity, Ames/micronucleus/aberration tests    mutagenic call    active; positive
3            O=C1C=Cc2ccccc2C1=O  CCRIS mutagenicity, Ames/micronucleus/aberration tests    mutagenic call  inactive; negative

----------
System: CCRIS mutagenicity, Ames/micronucleus/aberration tests
Assay: CCRIS mutagenicity studies
Settings: Test System: AMES SALMONELLA TYPHIMURIUM; Strain/Indicator: TA98; Metabolic Activation: S-9
Active and inactive are the calls of the source. The rule behind the calls is not given here.
Write down the outcome that applies. Available outcomes: active, inactive

>>> df
                                   molecule  category_label
0  CCOC(=O)[C@H](CCc1ccccc1)N[C@@H](C)C(=O)N(CC(=O)O)C1Cc2ccccc2C1        inactive
1     [O-][n+]1c2ccccc2c2ccc3cccc4ccc1c2c34          active
2  O=c1oc2ccccc2c(O)c1C1CCCc2ccccc21 (centres undefined)        inactive

Lab note: next molecule to report on.
INPUT: Could you kindly confirm the outcome this assay logged for CC(=O)OCC(=O)[C@@]1(OC(C)=O)CC[C@H]2[C@@H]3C[C@@H](F)C4=CC(=O)C(Br)=C[C@]4(C)[C@@]3(F)[C@@H](O)C[C@@]21C ?
OUTPUT: inactive

----------
Test system: CCRIS mutagenicity, Ames/micronucleus/aberration tests
Experiment: CCRIS mutagenicity studies
Conditions: Test System: AMES SALMONELLA TYPHIMURIUM; Strain/Indicator: TA100; Metabolic Activation: NONE; Method: STANDARD PLATE
The source made the active and inactive calls. How the calls were made is not given here.
observation.type: mutagenic call

                                   compound  observation_type              result
0  C[C@]12CC[C@H](OC(=O)COc3ccc(N(CCCl)CCCl)cc3)C[C@@H]1CC[C@@H]1[C@@H]2CC[C@]2(C)NC(=O)CC[C@@H]12    mutagenic call    active; positive
1            COc1cc2c(CCNC(C)=O)c[nH]c2cc1O    mutagenic call  inactive; negative
2  C=C(C)C1CCC(=C)C2C3=C(C[C@@H](C)C3=O)C(=O)C(C)=C[C@@H]12 (stereo partly drawn)    mutagenic call  inactive; negative
3                  Nc1cccc([N+](=O)[O-])c1N    mutagenic call    active; positive
4  CCN(CC)c1ccc(N=Nc2ccc([N+](=O)[O-])cc2C#N)cc1    mutagenic call    active; positive
5  Cc1cn2c(N=O)c(-c3ccc([N+](=O)[O-])cc3)nc2s1    mutagenic call    active; positive
6          c1ccc([C@H]2N[C@@H]2c2ccccc2)cc1    mutagenic call    active; positive
7            Nc1ccc(O)c2c1C(=O)c1ccccc1C2=O    mutagenic call  inactive; negative
8               CCC(=O)N(O)c1ccc(Cl)c(Cl)c1    mutagenic call  inactive; negative
9          Cc1cccc(N=Nc2c(O)ccc3ccccc23)c1C    mutagenic call  inactive; negative

Give mutagenic call for all compounds that follow.
1. NC(=O)N/N=C/C(=O)O
2. C=Cc1ccccn1
3. Nc1ccc2c(c1)C(=O)c1ccccc1C2=O
4. C[C@H]1CCC[C@@]2(C)CCCC[C@]12O

OUTPUT:
["inactive; negative", "inactive; negative", "inactive; negative", "inactive; negative"]
